- Target: EGFR (form in the assay not stated) (human, UniProt P00533 25-645, limits assumed)
- Assay procedure: ELISA, NEM conjugate 500 nM
Each entry below carries its recorded binding ratio vs parent P54AR4-83v2.

{"columns": ["Binder", "Unit descriptor", "binding ratio vs parent P54AR4-83v2"],
 "data": [
  ["P54AR4-83v2 V49C, NEM conjugate (designed binder, NEM on Cys 49, His-tagged) LPAPKNLVVSEVTEDSARLSWDDPWAFYESFLIQYQESEKVGEAIVLTCPGSERSYDLTGLKPGTEYTVSIYGVHNVYKDTNMRGLPLSAIFTT", "ratio", 0.98],
  ["P54AR4-83v2 L47C, NEM conjugate (designed binder, NEM on Cys 47, His-tagged) LPAPKNLVVSEVTEDSARLSWDDPWAFYESFLIQYQESEKVGEAIVCTVPGSERSYDLTGLKPGTEYTVSIYGVHNVYKDTNMRGLPLSAIFTT", "ratio", 0.91]
]}

The origin of these recorded values is patent US20170362301A1.
